# MEASURED ON: Fibroblast growth factor 10 (Homo sapiens) (UniProt O15520)
# Sequence (O15520 whole entry, looked up): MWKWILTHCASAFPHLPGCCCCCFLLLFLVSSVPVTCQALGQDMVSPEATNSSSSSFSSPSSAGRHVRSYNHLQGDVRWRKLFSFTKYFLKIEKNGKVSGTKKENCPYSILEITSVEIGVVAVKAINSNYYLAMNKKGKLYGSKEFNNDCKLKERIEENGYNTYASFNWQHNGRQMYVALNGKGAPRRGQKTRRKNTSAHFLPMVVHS
# ASSAY NOTES: compounds binding fibroblast growth factor 10 – biochemical, small-molecule microarray, 635 nm fluorescence, primary screen (AID 1102)
# MEASUREMENT SETUP: FGF10 binding, fluorescence 635 nm, higher = more signal
Attribute: composite z-score

Answered cases to consult:
{"MOLECULE": "CC(C)(C)N1CC=CC23O[C@@H]4C=CCCOC(=O)C4[C@H]2C(=O)N(CCCO)[C@@H]3C1=O (some centres not stated)", "composite z-score": -0.681}
{"MOLECULE": "[N-]=[N+]=NCc1ccccc1C[C@]1(C(=O)NCCN2CCOCC2)COC(c2ccc(OCCCO)cc2)=N1", "composite z-score": 0.396}
{"MOLECULE": "COCCOC(=O)N1C(=O)[C@@]2(c3cc(C#CCNC(N)=O)ccc31)[C@H](C(=O)N1CCCCCCC1)[C@H]1C(=O)O[C@H](c3ccccc3)[C@H](c3ccccc3)N1[C@@H]2c1ccc(OCCO)cc1", "composite z-score": 0.544}
{"MOLECULE": "C[N+](C)(C)CCCCCCNC(=O)[C@H]1C[C@H]2C(=O)N3CCC[C@H]3C(=O)N2[C@H]1c1cccc(OCCO)c1", "composite z-score": 0.755}
{"MOLECULE": "C[C@@]1([C@@H](NC(=O)c2cccs2)c2ccc(-c3ccccc3)cc2)C[C@H]1C1CCCCC1", "composite z-score": -0.728}

Query block: Fill in the blank: the reported composite z-score of C=CCC(OC(C)=O)[C@@H]1[C@@H](N(Cc2cccc3ccccc23)C(=O)c2ccc(C)cc2)c2cc(OCCCO)ccc2N1C(=O)c1ccc2ccccc2c1 (some centres not stated) is ____.
Result block: 0.11
